Assembled from different publications: IC50 for IRAK4 (Homo sapiens (Human), UniProt Q9NWZ3).

The following molecules have reported results that may help.
CC(C)(O)[C@H](F)CNC(=O)c1cnc(-c2ccc3cc(C#N)cnn23)cc1N[C@H]1CC[C@H](n2cc(C(N)=O)nn2)CC1 : < 1 nM
CCC[C@H](N)c1cccc(-c2ccc3cnn(-c4cccc(C=O)n4)c3c2)n1 : < 100 nM
CN1CCC(CNC(=O)c2csc(Nc3nc(O[C@H]4CCOC4)c4c(ccn4-c4cnn(C)c4)n3)c2)CC1 : ≤ 100 nM
CCNC(=O)c1cc2nc(C3CCOCC3)cn2cc1NC(=O)c1cccc(C(F)(F)F)n1 : 10 to 50 nM

Suppose we examine the molecule CCc1ccc2ncnc(O[C@H]3CC[C@H](N4CCOCC4)CC3)c2c1 ; what IC50 value has been reported? ≤ 5000 nM

Also need CC(=O)N1CCc2sc3ncnc(N[C@H]4CC[C@H](N5CCOCC5)CC4)c3c2C1 , thanks. 5000 to 20000 nM

====

pIC50: −log10 of the molar value.
# literature pull: IRAK4 (Homo sapiens (Human)) pIC50

CN(C)[C@H]1CC[C@H](Oc2ncnc3sc4c(c23)CC(CCO)OC4)CC1 (some centres unmarked) : > 5.30

Quick check: pIC50 on IRAK4 (Homo sapiens (Human)), item CCNC(=O)CC1CCc2sc3ncnc(O[C@H]4CC[C@H](N(C)C)CC4)c3c21 (stereo in doubt) ? > 5.30

Input Cn1cc(-n2ccc3nc(Nc4ccc(C(=O)N5CCOCC5)cc4)nc(O[C@H]4CCOC4)c32)cn1 6.00 to 7.00

One more compound: Nc1cncc(-c2ccc3cnn(-c4cccc(C5CC5)n4)c3c2)c1 > 7.00

Can you check CC(C)(O)[C@H](F)CNC(=O)c1cnc(-c2ccc3cc(C#N)cnn23)cc1N[C@H]1CC[C@H](c2nnc(C(F)F)o2)CC1 next? > 9.00

Subsequent entry: Oc1ccc(-n2cc(Nc3nc(N[C@H]4CC[C@H](O)CC4)c4sccc4n3)cn2)cc1 6.00 to 7.00

Similarly, COC[C@H]1CCCN1NC(=O)CCCCc1cn(-c2ccccc2)c(NC(=O)c2cccc(-c3cn[nH]c3)c2)n1 ? > 7.30

Do the same for CN1CCN(CCNC(=O)CCCc2cn(-c3ccccc3)c(NC(=O)c3cccc(-c4cnn(C)c4)c3)n2)CC1 please > 7.30

====

Compiled pIC50 measurements on UniProtKB Q9NWZ3 taken from the literature.
pIC50: −log10 of the molar value.

Cn1cc(Nc2nc(N[C@H]3CC[C@H](O)CC3)c3c(ccn3-c3cnn(C)c3)n2)cn1 : 6.00 to 7.00
Cn1cc(-c2cccc(-c3ncc(-c4cnn(C)c4)c(NCCCN4CCCC4=O)n3)c2)cn1 : 5.30 to 6.00
Cc1ccc(-c2cnc(-c3cccc(-c4cnn(C)c4)c3)nc2NC2CCN(S(C)(=O)=O)CC2)cn1 : > 7.00

Need pIC50 of C[C@H](N)c1cccc(-c2cc(-c3cnn(C)c3)c3cnn(-c4cccc(CO)n4)c3c2)n1 , thanks. > 7.00

Would you kindly repeat that for CCC(O)[C@H]1CCc2sc3ncnc(O[C@H]4CC[C@H](N(C)C)CC4)c3c21 (stereo partly drawn) ? 4.70 to 5.30

Please do the same for NC(=O)C(F)(F)C[C@H]1CCc2sc3ncnc(O[C@H]4CC[C@H](N5CCOCC5)CC4)c3c21 as well. > 5.30

====

For reference, the following IC50 results for IRAK4 (Homo sapiens (Human)) were taken from various sources.
Numbers only; they are read as nM.

CC(C)(O)[C@H](F)CNC(=O)c1cnc(Nc2ccn3nccc3n2)cc1NCC(F)F : 20.1
CC(C)Nc1c(C(=O)NC[C@@H](F)C(C)(C)O)cnc2c1[nH]c1cc(C#N)ccc12 : 2
CC(C)Nc1cc(-n2ncc3cc(C#N)cnc32)ncc1-c1cn(-c2cccc(O)c2)nn1 : 172
CC(=O)N1CCC(n2cc(-c3cnc(-n4ncc5cc(C#N)cnc54)cc3NC(C)C)nn2)C1 (centres unmarked) : 2

Continue with the next compound.
Entry CC(C)n1ccc(Nc2ncc(-c3ccc4ccccc4n3)c(N[C@@H]3C[C@H](CO)[C@@H](O)[C@H]3O)n2)cc1=O : reported IC50 = ? 154

====

The entries below pair compounds with pIC50 values for IRAK4 (Homo sapiens (Human), UniProt Q9NWZ3), as found in several publications.
pIC50: −log10 of the molar value.

GET /values?readout=pIC50&item= Cn1cc(-c2cccc(-c3ncc(-c4cnn(C)c4)c(NC4CCC(CNS(C)(=O)=O)CC4)n3)c2)cn1 (centres unmarked) > 7.00

Next up: CC1COC(c2cc(-c3cccc([C@H](C)N)n3)cc3c2cnn3-c2cccc(CO)n2)=N1 (some centres unmarked) > 7.00

Next compound: CNC1CCN(C(=O)c2ccc(Nc3nc(N[C@H]4CC[C@H](O)CC4)c4sccc4n3)cc2)CC1 6.00 to 7.00

Follow-up entry: Nc1ccc(-c2cccc(C(=O)Nc3nc(CCCCCCNC(=O)C4CC4)cn3-c3ccccc3)c2)cn1 > 7.30

Next entry: COc1cccc(-n2c(NC(=O)c3cccc(C(F)(F)F)c3)nc3cc(CN4CCN(CCOCCOc5ccc6c(c5)C(=O)N(C5CCC(=O)NC5=O)C6=O)CC4)ccc32)c1 (centres unmarked) ≤ 6.00

Again, but for Cn1cc(-c2cccc(C(=O)Nc3nc(CCCC(=O)NCCCO)cn3-c3ccccc3)c2)cn1 > 7.30

Another: O=C(CCCc1cn(-c2ccccc2)c(NC(=O)c2cccc(-c3cn[nH]c3)c2)n1)NC1CC1 > 7.30

Next record, please: C[C@H](N)c1cccc(-c2cc(-c3ccnn3C(F)F)c3cnn(-c4cccc(CO)n4)c3c2)n1 > 7.00

====

pIC50: −log10 of the molar value.
Literature-derived pIC50 for IRAK4 (Homo sapiens (Human)) follows.

COc1cc2nn(C3CCN(CCN4CCC5(CC4)CCN(C(=O)c4ccc(Cl)c(N6CCC(=O)NC6=O)c4)CC5)CC3)cc2cc1NC(=O)c1cccc(C(F)(F)F)n1 : 8.04
CCc1nc2c(N[C@H]3CC[C@H](N4CCOCC4)CC3)nc(Nc3cnn(CCCS(C)(=O)=O)c3)nc2s1 : ≥ 6.00

Moving on to another molecule below.
Param item = Cc1cc(Nc2nc(OC3CCOCC3)c3c(ccn3-c3ccccc3)n2)sn1 ; retrieve measured pIC50. 6.00 to 7.00

====

pIC50: −log10 of the molar value.
Here's a roundup of pIC50 values tested on IRAK4 (Homo sapiens (Human)), taken from various published works.

Here are 2 compounds together with their reported answers.
CC(=O)NCCNc1nc(-c2cccc(-c3cnn(C)c3)c2)ncc1-c1ccn(C)n1 : 5.30 to 6.00
O=C(CCCc1cn(-c2ccccc2)c(NC(=O)c2cccc(-c3cccc4[nH]ncc34)c2)n1)NC1CC1 : > 7.30

// next item, pIC50 requested
Requested read-out pIC50, target or system IRAK4 (Homo sapiens (Human)), entry CC(=O)c1cccc(-c2ccc3cnn(-c4nc(C)cs4)c3c2)n1 < 5.00

====

Collected pIC50 for UniProt:Q9NWZ3 across several studies; molecules listed below.
pIC50: −log10 of the molar value.

CCOC(=O)Cc1ccc2sc3ncnc(N[C@H]4CC[C@H](N5CCOCC5)CC4)c3c2c1 : 5.00 to 6.00

Would you kindly share the measured pIC50 for CC(=O)c1cccc(-c2cc(N(C)C)c3cnn(-c4cccc(C)n4)c3c2)n1 ? 5.00 to 6.00

# repeat for CCOC(=O)c1cnc(Nc2ccc3c(c2)C(C)(C)OC3=O)nc1NCc1ccccc1C(C)(C)O 6.00 to 6.60

Ok, now CCSCC1CCc2sc3ncnc(O[C@H]4CC[C@H](N(C)C)CC4)c3c21 (stereo partly drawn) > 5.30

Another molecule to check: OC/C=C\c1ccc2ncnc(N[C@H]3CC[C@H](N4CCOCC4)CC3)c2c1 ≥ 5.30

Query CC(C)(O)[C@H](F)CNC(=O)c1cnc(-c2cnc3cc(Cl)cnn23)cc1NCCC(F)(F)F next 8.22

What do you get for COc1cc2nn(C3CCN(CCN4CC5(CCN(C(=O)c6ccc(OC)c(N7CCC(=O)NC7=O)c6)CC5)C4)CC3)cc2cc1NC(=O)c1cccc(C(F)(F)F)n1 ? 8.22

Follow-up entry: O=C(Nc1nc(CCCCCC(=O)N2CCCCC2)cn1-c1ccccc1)c1cccc(-c2ccc3[nH]ncc3c2)c1 > 7.30

Now the molecule CCC[C@H](N)c1cccc(-c2ccc3cnn(-c4nccc(C(F)F)n4)c3c2)n1 > 7.00

Param item: CN(C)[C@H]1CC[C@H](Oc2ncnc3sc4c(c23)[C@@H](C[C@H](O)C(N)=O)CC4)CC1 > 5.30

NC(=O)c1ccc2sc3ncnc(N[C@H]4CC[C@H](N5CCOCC5)CC4)c3c2c1 , same question. ≥ 7.00

Same for CC(CCF)Nc1cc(-c2cnn3cc(C#N)cnc23)ncc1C(=O)NC[C@@H](F)C(C)(C)O (stereo partly drawn) 8.40

Now give it for COc1nc2c(OC[C@@H]3CC(C)C(=O)N3)csc2cc1C(N)=O (single isomer, unassigned) too. 6.34

Now consider Cc1cc(Nc2nc(N[C@H]3C[C@@](C)(O)C3)c3c(ccn3-c3cnn(C)c3)n2)sn1 . ≥ 7.00

CC(=O)N1CCc2sc3ncnc(N[C@H]4CC[C@H](N(C)C)CC4)c3c2C1 , same question. 4.70 to 5.30

Same question, CC(C)Nc1cc(-n2ncc3cc(C#N)cnc32)ncc1-c1cn(C2CN(C(=O)c3ccccc3)C2)nn1 this time 8.10

# repeat for N#Cc1ccnc(-n2ncc3ccc(-c4cncc(N)c4)cc32)c1 6.00 to 7.00

And for CC(C)(O)[C@H](F)CNC(=O)c1cnc(-c2cnc3cc(Cl)cnn23)cc1NC1COC1 ? 8.40
